From: the supplement of paper PMC10065799

molecular target: c-Src SH2; experiment: SH2 binding enrichment of the phosphorylated peptide, bacterial display (enrichment ratio); higher = better substrate or ligand; peptides without Tyr show the background;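 further: peptide library displayed on the E. coli surface as eCPX fusions, selected cells deep-sequenced, score is each peptide's frequency after selection divided by its frequency in the input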
Give condition met when the value for SH2 binding enrichment is at least 0.5. Give condition not met when it is less.

                        sequence_data  qualitative_label
 0  VNTMLYEKFTF [TEK_Y1108_T1106M_YF]      condition met
 1             SAVTGYRVDVI [FN1_Y937]  condition not met
 2     YSIDYYRVGGH [NTRK2_Y707_T704I]      condition met
 3      PLYGEYFTLQI [TP53_Y327_D324Y]  condition not met
 4          SLVGCYNLTFM [HS6ST3_Y323]  condition not met
 5    SGEKPYKCSVC [ZNF543_Y283_E287V]      condition met
 6         YALAEYTEVKT [ALDH1A3_Y497]      condition met
 7             FADIAYNYRHG [PAH_Y166]      condition met
 8    HMEAVYIDIAD [PITPNA_Y140_V136M]      condition met
 9   KNRDVSSSDYF [USP24_Y2134_Y2134S]      condition met
10              PEVSGYCHCAD [TG_Y234]      condition met
11   CFVFFYSFLLK [PTEN_Y178_R173C_YF]      condition met
12    HSPLRYTSILT [OR51B6_Y130_R125H]      condition met
13    VGTKRYMASEV [ACVRL1_Y375_P378S]  condition not met

---

target: Fyn (UniProt P06241); experiment: phosphorylation enrichment, bacterial display (enrichment ratio); higher = better substrate or ligand; peptides without Tyr show the background
Sequence (P06241 whole entry, looked up): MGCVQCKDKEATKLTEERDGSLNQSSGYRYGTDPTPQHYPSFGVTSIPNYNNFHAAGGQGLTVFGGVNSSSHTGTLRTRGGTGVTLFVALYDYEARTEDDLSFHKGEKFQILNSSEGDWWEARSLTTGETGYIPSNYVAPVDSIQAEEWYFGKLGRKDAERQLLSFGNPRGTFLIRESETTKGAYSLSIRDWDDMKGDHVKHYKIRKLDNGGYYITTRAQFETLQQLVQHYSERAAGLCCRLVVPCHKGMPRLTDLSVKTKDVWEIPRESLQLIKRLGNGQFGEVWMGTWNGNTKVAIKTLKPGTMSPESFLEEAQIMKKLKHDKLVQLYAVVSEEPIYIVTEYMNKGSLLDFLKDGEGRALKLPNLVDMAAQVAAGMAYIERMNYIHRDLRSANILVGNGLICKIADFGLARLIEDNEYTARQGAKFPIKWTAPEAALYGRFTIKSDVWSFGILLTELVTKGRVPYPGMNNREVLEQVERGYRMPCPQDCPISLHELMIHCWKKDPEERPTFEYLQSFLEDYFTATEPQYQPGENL
Give 1 when the value for phosphorylation enrichment is at least 0.9. Give -1 when it is less.

                        sequence_data  qualitative_label
 0        DTLLEYLENPK [CYCS_Y68_M66L]                 -1
 1            RLRAAYNLVKR [PFKM_Y103]                 -1
 2              EGDGVYTLNNE [HP_Y125]                  1
 3            RRYVYYYSYLL [PTEN_Y177]                 -1
 4     VDEERYDIEGK [TNNI3_Y112_A116G]                 -1
 5            DDHFTYSRYPW [LY75_Y888]                  1
 6           DRPSEYAARQL [ANXA13_Y90]                 -1
 7           LFSLGYHQSRW [GANAB_Y396]                 -1
 8  FKWAVYCIIGR [NUP93_Y391_R388W_YF]                 -1
 9      SVTCTYFPALN [TP53_Y126_S127F]                 -1
10       IRQGHYESLKE [MTR_Y921_D919G]                 -1
11      PLYGEYFTLQI [TP53_Y327_D324Y]                  1
12           MRNDLYQTPLH [NFKB1_Y582]                  1
13           RVLHNYLVWRV [ECEL1_Y400]                 -1

---

system: Fer (mouse); experiment: phosphorylation enrichment, bacterial display (enrichment ratio); higher = better substrate or ligand; peptides without Tyr show the background
ASSAY_ENDPOINT: phosphorylation enrichment

In [3]: df
Out[3]:
                    sequence_data  tested_target  value
0       IIQRAYRRHLL [SCN1A_Y1926]    Fer (mouse)  0.497
1      TTPYNYSYIFK [RAB14_Y8_A4T]    Fer (mouse)   0.97
2         YCVDCYKNFVA [FHL1_Y213]    Fer (mouse)  0.532
3    VDTFWYKLLKR [EPM2A_Y86_F88L]    Fer (mouse)  0.456
4   LINPKYSVEEE [PCDH19_Y27_L25P]    Fer (mouse)  0.977
5          SAVTGYRVDVI [FN1_Y937]    Fer (mouse)  0.335
6  SPYMLYQYLKQ [RPAP3_Y567_D564Y]    Fer (mouse)   10.6

---

target: MERTK (UniProt Q12866); assay: phosphorylation enrichment, bacterial display (enrichment ratio); higher = better substrate or ligand; peptides without Tyr show the background
Sequence (Q12866 whole entry, looked up): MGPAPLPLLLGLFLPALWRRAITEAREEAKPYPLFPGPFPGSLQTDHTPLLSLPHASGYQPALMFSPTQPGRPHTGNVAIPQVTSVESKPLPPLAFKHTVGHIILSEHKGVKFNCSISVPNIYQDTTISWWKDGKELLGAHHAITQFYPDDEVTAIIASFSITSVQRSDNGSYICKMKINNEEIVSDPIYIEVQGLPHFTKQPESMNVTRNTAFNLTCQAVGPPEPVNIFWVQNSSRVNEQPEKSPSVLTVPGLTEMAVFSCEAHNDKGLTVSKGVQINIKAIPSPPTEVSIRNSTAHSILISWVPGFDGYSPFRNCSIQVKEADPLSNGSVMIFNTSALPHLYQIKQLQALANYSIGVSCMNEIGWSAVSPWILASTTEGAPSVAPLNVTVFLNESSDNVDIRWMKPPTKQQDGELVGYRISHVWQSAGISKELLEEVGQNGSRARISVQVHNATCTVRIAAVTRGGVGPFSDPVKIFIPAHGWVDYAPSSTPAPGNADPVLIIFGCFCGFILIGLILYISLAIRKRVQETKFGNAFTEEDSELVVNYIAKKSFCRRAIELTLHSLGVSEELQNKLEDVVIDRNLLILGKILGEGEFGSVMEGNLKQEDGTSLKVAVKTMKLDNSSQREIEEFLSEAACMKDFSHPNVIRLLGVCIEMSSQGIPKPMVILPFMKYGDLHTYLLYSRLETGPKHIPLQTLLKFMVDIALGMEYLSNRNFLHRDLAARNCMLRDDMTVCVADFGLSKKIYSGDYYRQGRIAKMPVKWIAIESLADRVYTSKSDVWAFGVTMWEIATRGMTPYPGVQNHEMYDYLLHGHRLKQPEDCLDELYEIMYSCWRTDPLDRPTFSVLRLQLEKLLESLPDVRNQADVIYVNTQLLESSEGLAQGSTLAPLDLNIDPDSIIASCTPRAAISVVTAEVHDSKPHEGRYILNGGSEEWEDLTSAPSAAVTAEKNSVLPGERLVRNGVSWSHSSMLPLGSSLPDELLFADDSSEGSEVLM
The reader will find reported phosphorylation enrichment values listed item by item below.
ASSAY_ENDPOINT: phosphorylation enrichment

In [3]: df
Out[3]:
                         sequence_data              assay_endpoint  value
 0    KNRDVSSSDYF [USP24_Y2134_Y2134S]  phosphorylation enrichment  0.442
 1          EILLSYLRTGF [TGM1_Y365_YF]  phosphorylation enrichment  0.387
 2         VLVSQYEKLDA [AMZ2_Y26_N30D]  phosphorylation enrichment  0.462
 3    TQNAVYSAANF [DDX5_Y535_G533A_YF]  phosphorylation enrichment   8.98
 4         HFVDEYDQTIE [KRAS_Y32_P34Q]  phosphorylation enrichment  0.804
 5  FTFNSYFMHWV [IGHV1-46_Y51_T49N_YF]  phosphorylation enrichment   1.04
 6       GRVLGYGAFRK [FLT4_Y853_G857R]  phosphorylation enrichment  0.482
 7      PEFMVYKPQME [CCRL2_Y170_V168M]  phosphorylation enrichment  0.464
 8   PSRKDYETYQS [CTNND2_Y1154_P1159S]  phosphorylation enrichment  0.474
 9       MKVPLYETPAG [PGM5_Y358_V357L]  phosphorylation enrichment   9.79
10      RFLRGYHQDAY [HLA-A_Y137_R138H]  phosphorylation enrichment  0.795
11          TTPYNYSYIFK [RAB14_Y8_A4T]  phosphorylation enrichment   5.37
12        RLNCIYYKDQT [RS1_Y165_W163C]  phosphorylation enrichment   1.57
13    KDPPDYKFQPR [SOX9_Y172_H169P_YF]  phosphorylation enrichment  0.461
14        ADEEFYEIIAA [FEStide_F_2014]  phosphorylation enrichment   2.19
15     VNFQPYRKHKF [TEX37_Y28_D24N_YF]  phosphorylation enrichment   0.43
16       LKEIHYPPFTD [ALDH3B2_Y362_YF]  phosphorylation enrichment  0.329
17            PPNSPYIGSSP [KCNT1_Y740]  phosphorylation enrichment  0.422
18     FQGGTYSKACT [FGG_Y380_S384C_YF]  phosphorylation enrichment  0.446
19           TDIVAYSGRVQ [SPTBN2_Y477]  phosphorylation enrichment  0.885
20      RTMPDYTSFNT [EPHB2_Y912_I909M]  phosphorylation enrichment  0.459
21             INMKKYCKKDY [NTN1_Y490]  phosphorylation enrichment  0.402
22            ATARPYRPYII [LRP5_Y1528]  phosphorylation enrichment  0.468
23             NKYVAYIESQG [KDM4B_Y34]  phosphorylation enrichment  0.449
24            SLTRLYVGENA [NLRP3_Y861]  phosphorylation enrichment   0.34
25       SEVVPYEPPEV [TP53_Y220_V216E]  phosphorylation enrichment  0.473
26             TGVRDYIHVVD [GALE_Y241]  phosphorylation enrichment  0.331
27         VRFMAYTDETC [F8_Y450_F455C]  phosphorylation enrichment  0.431
28        MARDIYQASYY [LTK_Y672_R673Q]  phosphorylation enrichment   5.18
29      DLKFHYDNTAG [KDR_Y1214_P1210L]  phosphorylation enrichment  0.415
30  FSNPAYFVLEG [INPPL1_Y986_N982S_YF]  phosphorylation enrichment   3.43
31           IALNSYHSRNC [IFNGR1_Y397]  phosphorylation enrichment  0.469
32    CTTIHYNFVCN [TP53_Y234_M237V_YF]  phosphorylation enrichment  0.508
33   ASNFNYFFHRE [KCNA1_Y413_V408A_YF]  phosphorylation enrichment  0.453
34       LKGQVDILGRE [ASS1_Y359_Y359D]  phosphorylation enrichment  0.663
35             KTSGNYLAVTG [WDR19_Y28]  phosphorylation enrichment  0.757
36    EAVSIYQFFGQ [CBLC_Y402_H405Y_YF]  phosphorylation enrichment   9.29
37             SYKNKYGMVAQ [APOB_Y276]  phosphorylation enrichment  0.335
38     IHRWVYPLTPE [EIF2B5_Y319_R315H]  phosphorylation enrichment  0.487
39         GLRYGYGVLGG [KRTAP20-2_Y15]  phosphorylation enrichment  0.413
40      CWAVKYLQMVG [AVPR2_Y117_R113W]  phosphorylation enrichment  0.386
41    CTTIHYNFMGN [TP53_Y234_C238G_YF]  phosphorylation enrichment  0.532
42         CEQELYSQLVY [WAS_Y102_W97C]  phosphorylation enrichment   5.03
43   LARDMHDKEFF [MET_Y1230_Y1230H_YF]  phosphorylation enrichment  0.907
44        KFVVVYFREID [IL17RB_Y447_YF]  phosphorylation enrichment  0.362
45            LNPFIYSLRNR [OR1A1_Y288]  phosphorylation enrichment  0.493
46       MILSAYALGGL [CPS1_Y590_R587L]  phosphorylation enrichment  0.436
47     HICTAYKLVLA [DHCR24_Y190_E191K]  phosphorylation enrichment  0.832
48    IFGVSYGEFRF [CFTR_Y512_D513G_YF]  phosphorylation enrichment  0.465
49             PGAGHYEDTIL [ALK_Y1604]  phosphorylation enrichment  0.597
50            EEGNPYYSSAR [MCCC2_Y520]  phosphorylation enrichment  0.422
51       QTWKTYVRHQQ [SFI1_Y164_Q167H]  phosphorylation enrichment   0.49
52             KFSNQYKATIG [RAB7A_Y37]  phosphorylation enrichment    0.4
53       RQQEDYLLFKQ [RARRES1_Y159_YF]  phosphorylation enrichment  0.516
54      SLDHPFEKPRK [INAVA_Y333_Y333F]  phosphorylation enrichment  0.365
55       APTSGYREFVH [IL4R_Y575_Q576R]  phosphorylation enrichment  0.483
56        PEADKYRLPYA [FGG_Y300_T303P]  phosphorylation enrichment  0.477
